# Target under test: T1, N-terminally FLAG-tagged mouse Ang2 (HEK293T conditioned medium) (mouse, UniProt O35608 19-496)
# T1 construct: may be a nucleotide entry; also called mAng2; FLAG-mAng2
# T1 sequence: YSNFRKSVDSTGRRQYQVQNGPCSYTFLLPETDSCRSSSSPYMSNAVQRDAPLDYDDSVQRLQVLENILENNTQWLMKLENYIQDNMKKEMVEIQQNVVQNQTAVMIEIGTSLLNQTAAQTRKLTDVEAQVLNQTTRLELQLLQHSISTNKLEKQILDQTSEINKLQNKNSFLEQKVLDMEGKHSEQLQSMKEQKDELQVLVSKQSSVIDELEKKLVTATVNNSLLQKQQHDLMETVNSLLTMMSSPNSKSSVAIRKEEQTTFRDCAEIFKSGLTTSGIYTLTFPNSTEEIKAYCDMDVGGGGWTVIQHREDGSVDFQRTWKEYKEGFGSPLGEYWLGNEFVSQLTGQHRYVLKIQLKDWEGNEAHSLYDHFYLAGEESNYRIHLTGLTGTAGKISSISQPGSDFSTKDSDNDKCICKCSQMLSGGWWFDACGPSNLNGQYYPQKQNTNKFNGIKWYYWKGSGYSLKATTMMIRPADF
# Experiment notes: competition ELISA, periplasmic extract, FLAG-mAng2 on mTie2/Fc
Here the recorded % inh is given for each entry.
Measured quantity: % inh (%)

• VHH 22C07 (VHH, also called 022C07; not shown: C-terminal c-myc tag and His6 tag) VHH: EVQLVESGGGLVQAGGSLRLSCAASGFTFDDYAIGWFRQAPGKEREGVSCISSSDGSTYYADSVKGRFTISSDNAKNTVYLQMNSLKPEDTAVYYCAADFIISSKRLCLDLFGSRGQGTQVTVSS = 82
• VHH 24B05 (VHH, also called 024B05; not shown: C-terminal c-myc tag and His6 tag) VHH: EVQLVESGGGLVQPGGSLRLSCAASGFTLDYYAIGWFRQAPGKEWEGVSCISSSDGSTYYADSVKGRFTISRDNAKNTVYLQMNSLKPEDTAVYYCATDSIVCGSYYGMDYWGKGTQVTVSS = 98
• VHH 8A11 (VHH, also called 008A11; not shown: C-terminal c-myc tag and His6 tag) VHH: EVQLVESGGGLVQAGGSLRLSCAASGRTFSSYAMGWFRQAPGKELEFVTAVSWSGGSTYYADSVKGRFTISRDSAKNTVYLQMNSLKPEDTAVYYCAAQSTIVEVTTLEAYDYWGQGTQVTVSS = 13
• VHH 25F01 (VHH, also called 025F01; not shown: C-terminal c-myc tag and His6 tag) VHH: EVQLVESGGGLVQAGGSLRLSCAVSGLPFDDYVIGWFRQAPGKEREGVSCISSSDGSTYYADSVKGRFTISSDNAKNTVYLQMNSLKPEDTAAYYCAAGGPRINIATMTCSHDEYEYDYWGQGTQVTVSS = 42
• VHH 32H10 (VHH, also called 032H10; not shown: C-terminal c-myc tag and His6 tag) VHH: EVQLVESGGGLVQAGGSLRLSCAASGFDFEDYDMGWFRQAPGKEREGVSYISSSDGSTYYTDSVKGRFTISSDNAKNTVYLQMNSLIPEDTAVYYCAARPWTRRVYGSSWLARSLDEYEYDYWGQGTQVTVSS = 58
• VHH 13A02 (VHH, also called 013A02; not shown: C-terminal c-myc tag and His6 tag) VHH: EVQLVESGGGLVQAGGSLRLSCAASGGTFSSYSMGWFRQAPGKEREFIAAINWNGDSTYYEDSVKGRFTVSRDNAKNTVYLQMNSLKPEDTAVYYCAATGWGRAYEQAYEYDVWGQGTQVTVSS = 97
• VHH 15H04 (VHH, also called 015H04; not shown: C-terminal c-myc tag and His6 tag) VHH: EVQLVESGGGLVQAGGSLGLSCAASERTLPSYVMGWFRQAPGKELEFVAGISWSSGRTYYTDSVKGRFTISRDAAENTWYLQMNSLKPEDTAVYYCASNSVSEPTLHTWQYEASYDYWGQGTQVTVSS = 38
• VHH 28D10 (VHH, also called 028D10; not shown: C-terminal c-myc tag and His6 tag) VHH: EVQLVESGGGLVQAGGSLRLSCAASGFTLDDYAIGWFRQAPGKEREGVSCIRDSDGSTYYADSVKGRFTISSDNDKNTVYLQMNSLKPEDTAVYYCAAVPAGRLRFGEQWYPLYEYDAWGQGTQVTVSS = 93
• VHH 22G11 (VHH, Tested as periplasmic extract; also called 022G11; not shown: C-terminal c-myc tag and His6 tag) VHH: EVQLVESGGGLVQAGGSLRLSCAVSGFTFDDYAIGWFRQAPGKEREGVSCISRSDGSPYYADSVKGRFTISSDNAKGTVYLQMSSLKPEDTAVYYCAASWSGAYYSGTYYCDRLYEYDAWGQGTQVTVSS = 98
